Reference for the values: ChEMBL document CHEMBL1201862

Target: Corticotropin-releasing factor receptor 2/Corticotropin-releasing factor-binding protein (Homo sapiens, UniProt P24387+Q13324)
Assay: Dose Response confirmation of uHTS hits for small molecule antagonists of the CRF-binding protein and CRF-R2 receptor complex.
Type: functional
Conditions: read-out: IC50_Mean
Activity calls are given as the source filed them.
measure: IC50

Record excerpt, results attached:
CC(=O)Nc1cc(C(N)=O)c(Cl)cc1Cl = > 47.1 µM (inactive)
COc1ccc2c(C)cc(SCc3c(C)noc3C)nc2c1 = > 47.1 µM (inactive)
Cc1ccc2nc(SCC(=O)N3CCOCC3)[nH]c2c1 = > 47.1 µM (inactive)

Kindly give each listed record's IC50.
1. CC(=O)Nc1ccc(S(=O)(=O)N2CCC(NC(C)=O)(c3cccc(F)c3)CC2)cc1
2. COc1ccc(-c2cc3nc(C4CCN(C(=O)OC(C)(C)C)CC4)c(C(=O)O)cn3n2)cc1

1. > 47.1 µM (inactive)
2. 13.1 µM (active)

----------
Answer each item with its documented EC50.
Tested on: Streptococcus sp. 'group A'
Assay: Streptococcus pyogenes SK(-)GAS viability under kanamycin – luminescence, BacTiterGlo, confirmation, counter-screen for streptokinase expression inhibitor project, dose response (AID 1900)
Format: functional, organism-based
Active and inactive are the calls of the source.

Below: 5 compounds and their reported EC50.
O=C(Nc1ccccc1N1CCCC1)c1ccc2c(c1)OCO2 = > 150 µM (not active)
CC(C)c1ccc(/C=N/n2c(S)nnc2-c2ccccc2)cc1 = 18.3 µM (active)
CCc1ccccc1OCC(=O)Nc1nc(-c2cccnc2)cs1 = 0.428 µM (active)
Oc1ccc(Cl)cc1-c1cc(-c2cccc(Br)c2)[nH]n1 = 5.6 µM (active)
O=C(Nc1nnc(-c2ccccn2)o1)c1cccc(Cl)c1 = 2.42 µM (active)

Please give EC50 for each item listed below.
1. Cc1ccc(-[n+]2c(-c3ccc(Br)cc3)cn3c2CCc2ccc4cccnc4c2-3)cc1
2. COc1ccc(C(=O)NCC(=O)OCC(=O)N2N=C(c3ccc(Cl)cc3)CC2c2ccco2)cc1OC (configuration not stated)

1. 6.51 µM (active)
2. 47 µM (active)

----------
Molecular target: Streptokinase A (Streptococcus pyogenes serotype M1)
Assay: viability-normalized secreted streptokinase activity reduction – plasminogen activation absorbance, OD405, dose response (AID 1914);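 further: secreted streptokinase activity via plasminogen activation per viability signal from cell pellet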
Format: functional, Streptococcus pyogenes M1 GAS
The source made the active and inactive calls.
Give measured EC50 for each item. Keep answers brief.

Below are worked cases with known answers.
CC(NC(=O)Nc1nnc(C(F)(F)F)s1)(C(F)(F)F)C(F)(F)F = > 150 µM (not active)
COc1ccc(NC(=O)CN(C)C(=O)/C=C/c2cn(-c3ccccc3)nc2-c2ccc(F)cc2)cc1 = 53.8 µM (inconclusive)
COc1cc(/C=C2/SC(=S)N(Cc3ccccc3)C2=O)cc(Cl)c1O = > 150 µM (not active)
Cc1ccc(-[n+]2c(-c3ccc(Br)cc3)cn3c2CCc2ccc4cccnc4c2-3)cc1 = 6.5 µM (active)

# next molecule below
Form field: reported EC50 of O=C(Nc1ccccc1N1CCCC1)c1ccc2c(c1)OCO2
> 150 µM (not active)

----------
Molecular target: UniProt P9WMR3
Sequence (P9WMR3 whole entry): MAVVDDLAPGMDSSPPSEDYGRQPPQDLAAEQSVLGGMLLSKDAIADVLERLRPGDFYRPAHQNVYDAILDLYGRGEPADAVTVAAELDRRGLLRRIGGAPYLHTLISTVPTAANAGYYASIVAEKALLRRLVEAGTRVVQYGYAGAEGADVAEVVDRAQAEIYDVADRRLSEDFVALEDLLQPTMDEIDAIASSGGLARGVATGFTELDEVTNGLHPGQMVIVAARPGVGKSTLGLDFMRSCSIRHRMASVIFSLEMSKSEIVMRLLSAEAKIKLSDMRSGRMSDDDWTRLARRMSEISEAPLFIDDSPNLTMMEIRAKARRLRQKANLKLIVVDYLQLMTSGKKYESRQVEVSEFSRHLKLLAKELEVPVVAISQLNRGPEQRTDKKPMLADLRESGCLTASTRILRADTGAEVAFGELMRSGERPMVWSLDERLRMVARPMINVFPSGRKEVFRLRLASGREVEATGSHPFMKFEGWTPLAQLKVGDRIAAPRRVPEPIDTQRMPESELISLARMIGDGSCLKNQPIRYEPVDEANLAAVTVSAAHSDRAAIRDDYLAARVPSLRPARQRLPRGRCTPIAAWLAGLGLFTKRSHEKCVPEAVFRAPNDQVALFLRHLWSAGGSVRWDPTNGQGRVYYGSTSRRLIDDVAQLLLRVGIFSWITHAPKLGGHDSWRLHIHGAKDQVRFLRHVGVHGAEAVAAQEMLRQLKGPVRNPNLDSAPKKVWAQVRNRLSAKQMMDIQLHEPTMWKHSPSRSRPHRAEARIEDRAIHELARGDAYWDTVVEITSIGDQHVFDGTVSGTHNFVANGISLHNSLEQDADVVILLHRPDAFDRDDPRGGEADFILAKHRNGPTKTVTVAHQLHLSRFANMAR
Assay: DnaB intein splicing inhibitors, dose response, biochemical, cell-free fluorescence (AID 449749)
Type: functional
The source made the active and inactive calls.
Output constraint: value belongs to True (active), False (inactive)

Use the examples below as a reference point.
Nc1ccc(Oc2ncccn2)cc1 = True
Cc1nn(-c2ccccc2)c2c1C(c1ccc(F)cc1)C(C#N)=C(N)O2 (stereo not drawn) = True
Cc1n[nH]c2c1C(c1ccsc1C)C(C#N)=C(N)O2 (stereo not drawn) = True
COc1ccc(C2C(C#N)=C(N)Oc3[nH]nc(C)c32)cc1Cn1nnc2ccccc21 (stereo not drawn) = True
Cc1ccc(C)c(S(=O)(=O)Nc2ccc(O)c3ccccc23)c1 = True

In this assay, the call recorded for COc1ccc(N2C(=O)CSC23C(=O)N2c4c(cccc43)C(C)=CC2(C)C)cc1 (stereo not drawn) was what?
True

Same question, Cc1cccc(CS(=O)(=O)c2nnc([C@H](Cc3ccccc3)NC(=O)OC(C)(C)C)o2)c1 this time
True

Please give the result for Cc1n[nH]c2c1C(c1ccc(-c3ccc(Cl)cc3)o1)C(C#N)=C(N)O2 (stereo not drawn) too.
True

For O=C1c2[nH]nc(-c3ccccc3O)c2C(c2cccc(Cl)c2)N1Cc1ccco1 (stereo not drawn) then?
True

One more molecule: CN(C(=O)C(Cl)Cl)c1ccc(OC(=O)c2ccco2)cc1 [DILOXANIDE FUROATE]
True

And then CC(=O)NCCn1c(SCc2ccccc2C)nc2ccccc2c1=O , what is it?
True

Similarly, Cc1ccc(-n2nnc3c(SCC(=O)NCC4CCCO4)ncnc32)cc1 (stereo not drawn) ?
True

Now the molecule Brc1ccc(CNc2ccc3ncccc3c2)cc1
False

----------
A short record of AC50 observed with Cytochrome P450 3A4 (Homo sapiens) follows.

COc1ccc2c(c1)c(=O)oc1c(C)c(OCC(=O)N3CCc4ccccc4C3)ccc12 = 3.16 µM (inconclusive)
Cc1cc([N+](=O)[O-])nn1CC(=O)NN=C(S)Nc1ccc(F)cc1 = 22.4 µM (inconclusive)
N#Cc1cccc(-c2ccc3ncnc(NCc4ccccc4)c3c2)c1 = 15.8 µM (inconclusive)
COc1ccccc1-c1cc(NCc2cccs2)ncn1 = 31.6 µM (inconclusive)
Cc1ccc(-[n+]2c(-c3ccc(Br)cc3)cn3c2CCc2ccc4cccnc4c2-3)cc1 = 4.47 µM (inconclusive)
O=[N+]([O-])c1ccc(N2CCN(Cc3ccccc3)CC2)c(S(=O)(=O)N2CCOCC2)c1 = 12.6 µM (inconclusive)
O=C(NNC(=O)c1cc2cc3ccccc3nc2s1)c1cccc(C(F)(F)F)c1 = 1.26 µM (inconclusive)
O=C(CSc1ncccn1)Nc1ccc(S(=O)(=O)N2CCCCC2)cc1 = 25.1 µM (inconclusive)

Take each entry in turn and give its AC50.
1. CCOC(=O)N1CCC(NS(=O)(=O)c2ccc3c(c2)C(C)(C)C(=O)N3C)CC1
2. CC(=O)C1=C(O)[C@@H]2[C@@H]3c4c[nH]c5cccc(c45)C[C@@H]3C(C)(C)N2C1=O
3. Cc1ccc(NC(=O)C2CC(=O)n3c(nc4ccccc43)N2)cc1 (stereo not drawn)
4. C[C@H](C(=O)c1ccccc1)[C@@H](c1ccccc1)N1CCOCC1
5. O=C(OCc1ccccn1)c1ccc(COc2ccccc2Cl)o1

15.8 µM (inconclusive)
10 µM (inconclusive)
17.8 µM (inconclusive)
0.501 µM (inconclusive)
31.6 µM (inconclusive)
